Test system: Danio rerio larvae (5 dpf)
Assay: habituation (activity change first vs second 5 min of 1-s interval sound, period 17) minus DMSO control (percentage points); higher = larger habituation measure than DMSO larvae
Settings: 10 µM; exposure time: 3 h pre-incubation + 3 h imaging
Counter-ions that a name gives are not always drawn.
Use -3 as the dividing line for habituation, with the line itself on the MET side and lower values as NOT MET.

{"columns": ["compound", "label.value"],
 "data": [
  ["Clc1ccc2nsnc2c1NC1=NCCN1 [Tizanidine hydrochloride]", "MET"],
  ["CCCC1O[C@@H]2C[C@H]3[C@@H]4CCC5=CC(=O)C=C[C@]5(C)[C@H]4[C@@H](O)C[C@]3(C)[C@]2(C(=O)CO)O1 (stereo not given in full) [Budesonide]", "MET"],
  ["CC(C)COCC(CN(Cc1ccccc1)c1ccccc1)N1CCCC1 (stereo not given) [Bepridil hydrochloride]", "NOT MET"],
  ["CCCCCCCN(CC)CCCC(O)c1ccc(NS(C)(=O)=O)cc1 (stereo not given) [Ibutilide hemifumarate]", "MET"],
  ["CN[C@H]1CC[C@@H](c2ccc(Cl)c(Cl)c2)c2ccccc21 [Sertraline hydrochloride]", "NOT MET"],
  ["COCCc1ccc(OCC(O)CNC(C)C)cc1 (stereo not given) [Metoprolol tartrate]", "NOT MET"],
  ["O=c1n(CCCN2CCN(c3cccc(Cl)c3)CC2)nc2ccccn12 [Trazodone hydrochloride]", "NOT MET"],
  ["COc1cc2nccc(Oc3ccc(NC(=O)C4(C(=O)Nc5ccc(F)cc5)CC4)cc3)c2cc1OC", "NOT MET"],
  ["COc1ccccc1Oc1c(NS(=O)(=O)c2ccc(C(C)(C)C)cc2)nc(-c2ncccn2)nc1OCCO", "MET"],
  ["Cc1cc2c(s1)Nc1ccccc1N=C2N1CCN(C)CC1", "MET"],
  ["NS(=O)(=O)c1cc2c(cc1Cl)NC(C1CC3C=CC1C3)NS2(=O)=O (stereo not given) [Cyclothiazide]", "MET"],
  ["CNCc1ccc(-c2[nH]c3cc(F)cc4c3c2CCNC4=O)cc1 [Rucaparib camsylate]", "MET"],
  ["CCCc1nn(C)c2c(=O)[nH]c(-c3cc(S(=O)(=O)N4CCN(C)CC4)ccc3OCC)nc12 [Sildenafil citrate]", "MET"],
  ["C#CCN[C@@H]1CCc2ccccc21 [Rasagiline mesylate]", "MET"],
  ["O=C1CCc2ccc(OCCCCN3CCN(c4cccc(Cl)c4Cl)CC3)cc2N1", "NOT MET"],
  ["CNC(=O)c1cc(Oc2ccc(NC(=O)Nc3ccc(Cl)c(C(F)(F)F)c3)cc2)ccn1", "NOT MET"],
  ["CC(=O)Oc1cc2c(s1)CCN(C(C(=O)C1CC1)c1ccccc1F)C2 (stereo not given)", "MET"],
  ["CN(C)CCc1c[nH]c2ccc(C[C@H]3COC(=O)N3)cc12", "MET"],
  ["CC(C)OC(=O)C(C)(C)Oc1ccc(C(=O)c2ccc(Cl)cc2)cc1 [Fenofibrate]", "MET"],
  ["N#Cc1ccc2[nH]cc(CCCCN3CCN(c4ccc5oc(C(N)=O)cc5c4)CC3)c2c1 [Vilazodone hydrochloride]", "MET"]
]}
